// data source = patent US8937091B2

Listed molecules paired with reported inhibition at 30 µM
tested on: IICR (IP3 induced calcium release) in CHO cells; assay: Assay of IICR (IP3 induced calcium release)-inhibiting action; assay type: cell-based, Chinese hamster; settings: Cricetulus griseus, CHO, test compound 30 μmol; CHO cells, 10 μM ATP; read-out: IICR level (percentage of inhibition)

molecule	inhibition at 30 µM
CC(C)N(CCC(=O)c1ccc(Br)s1)Cc1ccccc1 [Example 292]	80%
O=C(CCNC12CC3CC(CC(C3)C1)C2)c1ccccc1 [Example 189, 2-N-adamantaneaminoethylphenylketone]	0%
CC(CN(CCO)C(C)C)C(=O)c1ccccc1F (stereo not shown) [Example 181]	10%
CCN(CC)CCC(=O)c1ccc(Oc2ccccc2)cc1 [Example 116]	20%
Cc1csc(C(=O)CCN(Cc2ccccc2)C(C)C)c1 [Example 321]	70%
CC(C)N(CCO)CCC(=O)c1ccc2ccccc2c1 [Example 205]	0%
CCCCN(CCC(=O)c1ccncc1)Cc1ccccc1 [Example 376]	84%
CCN(CCC(=O)c1ccc2c(c1)Cc1ccccc1-2)Cc1ccccc1 [Example 218]	40%
O=C(CCN(CCO)CCO)c1cccs1 [Example 149]	20%
CC(C)(C)N(CCC(=O)c1ccc(Cl)s1)Cc1ccccc1 [Example 280]	60%
